Experiment: BET inhibitor-based combinations targeting novel dependencies in MECOM-rearranged (r) AML: HNT-34 cell line (AID 2202234); further: nearly all actives have a fitted effect of over 35% in size; further: potency means the concentration at half of the fitted maximal effect
Conditions: HNT-34 AML viability, CellTiter-Glo luminescence, 48 h; series mostly up to 46 µM
Results filed as inconclusive are left out. Calls of active or inactive are those of the source. The call rests on the fitted dose curve; in most records, active means well fitted inhibition curve with a large enough effect; inconclusive means small, poorly fitted or top-dose-only effect; inactive means no such curve, though single readings can be large or run the other way.
assay-endpoint: Potency

- molecule: "Cc1ccc(C(=O)Nc2cccc(C(F)(F)F)c2)cc1Nc1nc(-c2cccnc2)nc2c1cnn2C"
  Potency: "9.34 µM (active)"
- molecule: "CCN(c1cc(-c2ccc(CN3CCOCC3)cc2)cc(C(=O)NCc2c(C)cc(C)[nH]c2=O)c1C)C1CCOCC1"
  Potency: "inactive"
- molecule: "COc1c(N2C[C@@H]3CCCN[C@H]3C2)c(F)cc2c(=O)c(C(=O)O)cn(C3CC3)c12"
  Potency: "inactive"
- molecule: "CC(C)[C@H](CO)Nc1nc(Nc2ccc(C(=O)O)c(Cl)c2)c2ncn(C(C)C)c2n1"
  Potency: "inactive"
- molecule: "CC(Oc1ccc(O)cc1)(P(=O)(O)O)P(=O)(O)O"
  Potency: "inactive"

Please give Potency, item by item, for the list that follows.
1. O=C(/C=C/C#Cc1cccc(NS(=O)(=O)c2ccccc2)c1)NO
2. Cc1ccc(S(=O)(=O)OCC(=O)Nc2ccc(C(=O)O)c(O)c2)cc1
3. CCc1nc(C(N)=O)c(Nc2ccc(N3CCC(N4CCN(C)CC4)CC3)c(OC)c2)nc1NC1CCOCC1
4. OCc1ccccc1O[C@@H]1O[C@H](CO)[C@@H](O)[C@H](O)[C@H]1O
5. CCC1=C(C)CN(C(=O)NCCc2ccc(S(=O)(=O)NC(=O)NC3CCC(C)CC3)cc2)C1=O (stereo not given)
6. C=CC(=O)Nc1cccc(Oc2nc(Nc3ccc(N4CCN(C)CC4)cc3)ncc2Cl)c1
7. CS(=O)(=O)c1ccc(C(=O)Nc2ccc(Cl)c(-c3ccccn3)c2)c(Cl)c1
8. COCCCOc1cc(C[C@@H](C[C@H](N)[C@@H](O)C[C@H](C(=O)NCC(C)(C)C(N)=O)C(C)C)C(C)C)ccc1OC

OUTPUT:
1: 0.723 µM (active); 2: inactive; 3: 1.48 µM (active); 4: inactive; 5: inactive; 6: 2.35 µM (active); 7: inactive; 8: inactive
